Data provenance is BindingDB's records for doi:10.1021/acs.jmedchem.9b01152.

Experimental Target: Histone deacetylase 8 (Homo sapiens)
Test Protocol: Inhibition of human recombinant HDAC8 using RHKAcKAc-AMC substrate by fluorescence based assay
Value Kind: IC50 (nM)
Number only, in nM; omit the unit.

INPUT: GET /values?readout=IC50&item= O=c1c2ccccc2[se]n1-c1ccccc1 [2-Phenyl-benzo[d]isoselenazol-3-one]
OUTPUT: 1200
